Target: human PCSK9 (Homo sapiens, UniProt Q8NBP7)
Sequence (Q8NBP7 153-692): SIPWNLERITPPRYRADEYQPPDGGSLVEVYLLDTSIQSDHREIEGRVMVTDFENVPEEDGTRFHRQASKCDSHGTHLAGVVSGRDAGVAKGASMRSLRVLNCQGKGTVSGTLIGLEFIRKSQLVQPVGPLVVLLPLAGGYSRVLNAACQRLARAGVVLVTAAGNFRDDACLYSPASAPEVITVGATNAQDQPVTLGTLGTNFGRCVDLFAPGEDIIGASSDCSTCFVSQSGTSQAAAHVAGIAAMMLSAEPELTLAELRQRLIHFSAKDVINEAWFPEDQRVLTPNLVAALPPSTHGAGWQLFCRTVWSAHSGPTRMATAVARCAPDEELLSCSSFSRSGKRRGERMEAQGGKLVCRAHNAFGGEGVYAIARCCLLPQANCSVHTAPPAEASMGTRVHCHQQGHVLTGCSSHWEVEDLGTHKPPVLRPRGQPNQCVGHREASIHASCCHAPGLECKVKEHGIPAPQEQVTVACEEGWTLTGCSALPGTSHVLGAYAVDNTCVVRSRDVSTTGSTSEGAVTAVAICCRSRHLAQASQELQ
Sequence (Q8NBP7 31-152 partner limits assumed): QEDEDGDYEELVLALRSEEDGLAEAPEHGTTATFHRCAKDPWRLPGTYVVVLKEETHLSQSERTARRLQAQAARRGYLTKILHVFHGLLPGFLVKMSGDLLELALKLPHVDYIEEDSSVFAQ
Assay: PCSK9 ligand binding TR-FRET assay (interference with binding of human PCSK9 to human LDLR)
Settings: PCSK9 FRET assay, efficacy (Amax); 100% = 1 uM unlabeled human PCSK9, 0% = DMSO
measurement kind: Max % inhibition

Some compounds with recorded Max % inhibition:
CC(O)c1ncc(-c2ccc(Oc3cc(Cl)ccc3CN3C(=O)C[C@@H](Cc4ccccc4)C(=O)N(C)[C@@H](C)CNC(=O)C[C@H](Cc4ccc(Cl)cc4)N(C)C(=O)[C@H](CO)NC(=O)[C@@H]3C)cc2)n1C (stereo partly shown) [Compound 21]: 66.09%
CCOC[C@@H]1NC(=O)[C@H](C)N(Cc2ccc(Cl)cc2Oc2ccc(-c3cnc(CN(C)C)n3C)cc2)C(=O)C[C@@H](C)C(=O)N(C)[C@@H](C)CNC(=O)C[C@H](Cc2ccc(Cl)cc2)N(C)C1=O.O=CO [Compound 53]: 92.32%
COC[C@@H]1NC(=O)[C@H](C)N(Cc2ccc(Cl)cc2Oc2ccc(-n3cc(CN4CCCC4)nn3)cc2)C(=O)C[C@@H](Cc2ccccc2)C(=O)N(C)[C@@H](C)CNC(=O)C[C@H](Cc2ccc(Cl)cc2)N(C)C1=O [Compound 127]: 55.01%

Shift focus to the following entry.
Ask: Tell us which Max % inhibition value is on record for COC[C@@H]1NC(=O)[C@H](C)N(Cc2cccnc2Oc2ccc(-c3cnc(CN(C)C)n3C)cc2)C(=O)C[C@@H](Cc2ccccc2)C(=O)N(C)[C@@H](C)CNC(=O)C[C@H](Cc2ccc(Cl)cc2)N(C)C1=O [Compound 210]
Reply: 91.38%
